- Assay method text: Plasma nalbuphine after subcutaneous nalbuphine in dogs
- Assay type: in vivo
- Conditions: dog, plasma, subcutaneous, 0.5 mg/kg

{"columns": ["Molecule", "concentration at 3 h, ng/mL"],
 "data": [
  ["Oc1ccc2c3c1O[C@H]1[C@@H](O)CC[C@@]4(O)[C@@H](C2)N(CC2CCC2)CC[C@]314 [nalbuphine]", 9.9]
]}

---

- Assay method text: Plasma nalbuphine after subcutaneous nalbuphine in dogs
- Format: in vivo
- Conditions: dog, plasma, subcutaneous, 0.5 mg/kg

{"columns": ["Line notation", "concentration at 4 h [ng/mL]"],
 "data": [
  ["Oc1ccc2c3c1O[C@H]1[C@@H](O)CC[C@@]4(O)[C@@H](C2)N(CC2CCC2)CC[C@]314", 5.2]
]}
